System: Escherichia coli
measurement notes: Antibacterial activity against Escherichia coli at 100 ug/disc after 24 hrs by disc diffusion method
Format: functional
test parameters: read-out: DIZ
readout kind: zone of inhibition at 100 µg/disc

compound="CCN1CCN(CC2SC(c3ccccc3C(=O)O)N(c3ccc(Nc4nc(Oc5cc(=O)n(C)c6ccccc56)nc(N(C)C)n4)cc3)C2=O)CC1 (configuration not stated)" target="Escherichia coli" reported_result="18 mm"
compound="CCN1CCN(CC2SC(c3ccc(Br)cc3)N(c3ccc(Nc4nc(Oc5cc(=O)n(C)c6ccccc56)nc(N(C)C)n4)cc3)C2=O)CC1 (configuration not stated)" target="Escherichia coli" reported_result="19 mm"
compound="CCN1CCN(CC2SC(c3ccc(OC)cc3)N(c3ccc(Nc4nc(Oc5cc(=O)n(C)c6ccccc56)nc(N(C)C)n4)cc3)C2=O)CC1 (configuration not stated)" target="Escherichia coli" reported_result="27 mm"
compound="CCN1CCN(CC2SC(c3ccc(C)cc3)N(c3ccc(Nc4nc(Oc5cc(=O)n(C)c6ccccc56)nc(N(C)C)n4)cc3)C2=O)CC1 (configuration not stated)" target="Escherichia coli" reported_result="24 mm"
compound="CCN1CCN(CC2SC(c3cccc(O)c3O)N(c3ccc(Nc4nc(Oc5cc(=O)n(C)c6ccccc56)nc(N(C)C)n4)cc3)C2=O)CC1 (configuration not stated)" target="Escherichia coli" reported_result="< 10 mm"
compound="CCN1CCN(CC2SC(c3ccc(F)cc3)N(c3ccc(Nc4nc(Oc5cc(=O)n(C)c6ccccc56)nc(N(C)C)n4)cc3)C2=O)CC1 (configuration not stated)" target="Escherichia coli" reported_result="28 mm"
compound="CCN1CCN(CC2SC(c3ccc(Cl)c(Cl)c3)N(c3ccc(Nc4nc(Oc5cc(=O)n(C)c6ccccc56)nc(N(C)C)n4)cc3)C2=O)CC1 (configuration not stated)" target="Escherichia coli" reported_result="17 mm"

Each recorded value in this set is attributed to ChEMBL document CHEMBL1933017.
